# test details: Plasma and urine pharmacokinetics (HPLC-UV) in patients after 60-min IV infusion
# Type: in vivo, human
# setup conditions: human, plasma, intravenous, two-compartment model; 95% CI 0.41-2.61 h; read-out: mean plasma half-life (terminal) (converted)

structure	half-life
C[C@@](O)(/C=C/[C@H]1CC=CC(=O)O1)[C@@H](C[C@@H](O)\C=C/C=C\C=C\CO)OP(=O)(O)O	1.51 h

----------
# test details: Plasma and urine pharmacokinetics (HPLC-UV) in patients after 60-min IV infusion
# Type: in vivo, human
# setup conditions: human, plasma, intravenous, 12.2 mg, patient no. 18; 12.2 mg m-2; day 1 course 1; two-compartment model; read-out: t1/2 (initial) (converted)
endpoint label: half-life (min)

compound	endpoint label	measured result
C[C@@](O)(/C=C/[C@H]1CC=CC(=O)O1)[C@@H](C[C@@H](O)\C=C/C=C\C=C\CO)OP(=O)(O)O [fostriecin]	half-life	27.6

meta.source: paper PMC2362650
